The measurements presented in this section are drawn from patent US6897209B2.

# method.description: Normal rat biodistribution
# Assay type: in vivo
# condition: 15 min post-injection, i.v., male Wistar rats, Mean±SD n=3
Measured % ID Muscle accompanies every entry in the list below.
Kindly answer with a numeric value in % ID, unit omitted.

Solved cases below.
[[record]]
compound = "NCCCCCNS(=O)(=O)c1ccc(C(=O)NCCCNC(=O)c2ccc(NN)nc2)cc1"
scale_unit = "% ID"
recorded_result = 17.9

[[record]]
compound = "CC(=NO)C(C)(C)NCC(C)(CNC(=O)C1CCC(CNC(=O)c2ccc(S(=O)(=O)NCCCCCN)cc2)CC1)CNC(C)(C)C(C)=NO (centres unmarked)"
scale_unit = "% ID"
recorded_result = 3.97


// Input: CC(CNCc1ccccc1O)(CNCc1ccccc1O)CNC(=O)c1ccc(S(=O)(=O)NCCCCCN)cc1 . Output its % ID Muscle only.
8.93

Item CC(=NO)C(C)(C)NCC(C)(CNC(=O)c1ccc(S(=O)(=O)NCCCCCN)cc1)CNC(C)(C)C(C)=NO (centres unmarked) : provide % ID Muscle
4.87

Quote % ID Muscle reported for CC(=NO)C(C)(C)NCCN(CCNC(=O)C1CCC(CNC(=O)c2ccc(S(=O)(=O)NCCCCCN)cc2)CC1)CCNC(C)(C)C(C)=NO (centres unmarked) please.
15.6
